assay: Oral bioavailability in Wistar rat; format: ADME, organism-based; settings: in vivo
quantity kind: bioavailability (%)
API: value field is a number in %; no unit string.

CC(C)c1cc(-c2ccc(F)c3ccccc23)nc(N)n1
10

Here's the next entry for you.
Consider N#Cc1cc(CN2CCC(Nc3ncnc4sc(Cl)cc34)CC2)ccc1F [PRX-08066 FREE BASE] . Its measured bioavailability is 17

###

Parameter Cmax: see the listing below.
assay: Cmax in Sprague-Dawley rat 10 mg/kg, po; format: ADME, organism-based; design: dose 10 mg/kg, route oral; conditions: in vivo
API: value field is a number in ng/mL; no unit string.

Known results for molecules:
O=C(c1ccc(-c2ccccc2)cc1)N1CCC(c2nc3ccccc3[nH]2)CC1
5000
O=S(=O)(c1ccc(-c2ccc(F)cc2)cc1)N1CCC(c2ncc[nH]2)CC1
870
O=C(c1ccc(-c2ccc(F)cc2)cc1)N1CCC(Cc2ncc[nH]2)CC1
600

Here's the next entry for you.
Consider O=C(c1ccc(-c2ccc(F)cc2)cc1)N1CCC(c2ncc[nH]2)CC1 . Its measured Cmax is 1700

###

biological target: UniProt:P41595; experiment: Antagonist activity at 5-HT2B receptor expressed in CHOK1 cells assessed as inhibition of serotonin-induced intracellular Ca2+ flux by aequorin luminescence assay in presence of 4% human serum albumin; type: functional, cell-based, CHO-K1
Parameter IC50: see the listing below.

N#Cc1cc(CN2CCC(Nc3ncnc4sc(Cl)cc34)CC2)ccc1F [PRX-08066 FREE BASE]
270 nM
O=S(=O)(c1ccc(-c2ccc(F)cc2)cc1)N1CCC(c2ncc[nH]2)CC1
30 nM
COc1cc(-c2ccccc2)ccc1C(=O)N1CCC(c2nc3ccccc3[nH]2)CC1
1200 nM
O=C(c1ccc(-c2ccccc2)cc1)N1CCC(Cc2ncc[nH]2)CC1
14 nM
O=C(c1ccccc1)N1CCC(c2nc3ccccc3[nH]2)CC1
> 10000 nM
O=C(c1ccc(-c2ccncc2)cc1)N1CCC(c2nc3ccccc3[nH]2)CC1
> 13000 nM
O=C(c1ccc(-c2ccccc2)cc1)N1CCC(Cc2nc3ccccc3[nH]2)CC1
300 nM
O=C(c1ccc(-c2ccccc2)cc1)N1CCN(c2nc3ccccc3[nH]2)CC1
> 25000 nM
O=C(c1ccc(-c2ccccc2)cn1)N1CCC(c2nc3ccccc3[nH]2)CC1
> 2400 nM

Here's the next entry for you.
Consider NC(=O)c1ccc(-c2ccc(C(=O)N3CCC(c4nc5ccccc5[nH]4)CC3)cc2)cc1 . Its measured IC50 is > 24000 nM

###

Parameter IC50: see the listing below.
molecular target: 5-hydroxytryptamine receptor 2B (Homo sapiens, UniProt P41595); experiment: Antagonist activity at 5-HT2B receptor expressed in CHOK1 cells assessed as inhibition of serotonin-induced intracellular Ca2+ flux by aequorin luminescence assay in presence of 4% human serum albumin; type: functional, cell-based, CHO-K1
Sequence (P41595 whole entry): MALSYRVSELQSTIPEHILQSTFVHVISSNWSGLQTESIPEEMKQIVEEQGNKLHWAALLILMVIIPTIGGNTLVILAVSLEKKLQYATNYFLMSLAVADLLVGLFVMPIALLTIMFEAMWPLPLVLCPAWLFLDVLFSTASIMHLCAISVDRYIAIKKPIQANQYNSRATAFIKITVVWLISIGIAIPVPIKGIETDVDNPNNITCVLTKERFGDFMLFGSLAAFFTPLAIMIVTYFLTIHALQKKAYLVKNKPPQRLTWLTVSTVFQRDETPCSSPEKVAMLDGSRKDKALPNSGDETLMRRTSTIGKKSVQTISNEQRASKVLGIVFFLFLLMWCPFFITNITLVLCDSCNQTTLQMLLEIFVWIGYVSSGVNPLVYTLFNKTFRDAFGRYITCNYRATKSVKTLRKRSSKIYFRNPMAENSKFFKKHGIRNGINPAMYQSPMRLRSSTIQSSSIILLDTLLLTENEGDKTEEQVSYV
API: value field is a number in nM; no unit string.

Known results for compounds:
CC(C)c1cc(-c2ccc(F)c3ccccc23)nc(N)n1
19
Cc1cc2c(cc1Cl)N(C(=O)Nc1cccc3ncccc13)CC2
64
O=S(=O)(c1ccc(-c2ccccc2)cc1)N1CCC(c2ncc[nH]2)CC1
32
O=S(=O)(c1ccc(-c2ccccc2)cc1)N1CCC(Cc2ncc[nH]2)CC1
990
O=C(c1ccc(C2CCCCC2)cc1)N1CCC(c2nc3ccccc3[nH]2)CC1
1100

Here's the next entry for you.
Consider COc1ccc(-c2ccc(C(=O)N3CCC(c4nc5ccccc5[nH]4)CC3)cc2)cc1 . Its measured IC50 is 3200

###

Parameter AUC: see the listing below.
assay: AUC in Wistar rat at 10 mg/kg, po; assay type: ADME, organism-based; set-up: dose 10 mg/kg, route oral; details: plasma

CC(C)c1cc(-c2ccc(F)c3ccccc23)nc(N)n1
810 ng·h/mL

Here's the next entry for you.
Consider N#Cc1cc(CN2CCC(Nc3ncnc4sc(Cl)cc34)CC2)ccc1F [PRX-08066 FREE BASE] . Its measured AUC is 500 ng·h/mL

###

test: Selectivity for 5-HT2B receptor over 5-HT2A receptor
Parameter Selectivity ratio: see the listing below.
Please give only the number in your answer, with no unit.

CC(C)c1cc(-c2ccc(F)c3ccccc23)nc(N)n1
2000

Consider Cc1cc2c(cc1Cl)N(C(=O)Nc1cccc3ncccc13)CC2 . Its measured Selectivity ratio is 7

###

target: 5-hydroxytryptamine receptor 2B (Homo sapiens); experiment: Antagonist activity at 5-HT2B receptor expressed in CHOK1 cells assessed as inhibition of serotonin-induced intracellular Ca2+ flux by aequorin luminescence assay in presence of 4% human serum albumin; format: functional, cell-based, CHO-K1
Parameter IC50: see the listing below.

Known results for compounds:
O=C(c1ccc(-c2ncccn2)cc1)N1CCC(c2nc3ccccc3[nH]2)CC1
> 2.7 µM
O=C(c1ccc(-c2ccccc2)cc1)N1CCC(c2nc3ccccc3[nH]2)CC1
1.2 µM
O=C(c1ccc(-c2cccnc2)cc1)N1CCC(c2nc3ccccc3[nH]2)CC1
> 14 µM

Here's the next entry for you.
Consider O=C(c1ccc(N2CCCCC2)cc1)N1CCC(c2nc3ccccc3[nH]2)CC1 . Its measured IC50 is 12 µM

###

target: 5-hydroxytryptamine receptor 2B (Homo sapiens, UniProt P41595); assay: Antagonist activity at 5-HT2B receptor expressed in CHOK1 cells assessed as inhibition of serotonin-induced intracellular Ca2+ flux by aequorin luminescence assay; format: functional, cell-based, CHO-K1
Parameter IC50: see the listing below.
API: value field is a number in µM; no unit string.

O=C(c1ccc(-c2ccccc2)cc1)N1CCC(c2nc3ccccc3o2)CC1
1.5
O=S(=O)(c1ccc(-c2ccccc2)cc1)N1CCC(Cc2ncc[nH]2)CC1
0.0065
O=C(c1ccc(C2CCCCC2)cc1)N1CCC(c2nc3ccccc3[nH]2)CC1
0.031

Consider O=C(c1ccc(-c2ccccc2)cn1)N1CCC(c2nc3ccccc3[nH]2)CC1 . Its measured IC50 is 0.012

Consider c1ccc(-c2ccc(CN3CCC(c4nc5ccccc5[nH]4)CC3)cc2)cc1 . Its measured IC50 is 0.065

###

molecular target: 5-hydroxytryptamine receptor 2B (Homo sapiens, UniProt P41595); assay: Antagonist activity at 5-HT2B receptor expressed in CHOK1 cells assessed as inhibition of serotonin-induced intracellular Ca2+ flux by aequorin luminescence assay; type: functional, cell-based, CHO-K1
Parameter log10 IC50: see the listing below.
// do not treat as linear: log10 of IC50, unit nM

Known results for compounds:
O=C(c1ccc(-c2ccccc2)cc1)N1CCC(Cc2nc3ccccc3[nH]2)CC1
0.36
COc1ccc(-c2ccc(C(=O)N3CCC(c4nc5ccccc5[nH]4)CC3)cc2)cc1
0.53
N#Cc1cc(CN2CCC(Nc3ncnc4sc(Cl)cc34)CC2)ccc1F [PRX-08066 FREE BASE]
0.54
O=C(c1ccc(-c2ccccc2)[nH]c1=O)N1CCC(c2nc3ccccc3[nH]2)CC1
1.34
O=C(c1ccc(-c2ccccc2)cc1)N1CCC(c2nc3ccccc3[nH]2)CC1
0.38

Log: 5-hydroxytryptamine receptor 2B (Homo sapiens, UniProt P41595), compound O=C(c1cnc(-c2ccccc2)nc1)N1CCC(c2nc3ccccc3[nH]2)CC1 , log10 IC50 = 0.40

Log: 5-hydroxytryptamine receptor 2B (Homo sapiens, UniProt P41595), compound O=C(c1ccc(-c2ccccc2)cc1)N1CCN(c2nc3ccccc3[nH]2)CC1 , log10 IC50 = 3.84

Log: 5-hydroxytryptamine receptor 2B (Homo sapiens, UniProt P41595), compound O=C(c1ccc(-c2ncccn2)cc1)N1CCC(c2nc3ccccc3[nH]2)CC1 , log10 IC50 = 2.08

###

target: 5-hydroxytryptamine receptor 2B (Homo sapiens); experiment: Antagonist activity at 5-HT2B receptor expressed in CHOK1 cells assessed as inhibition of serotonin-induced intracellular Ca2+ flux by aequorin luminescence assay in presence of 4% human serum albumin; format: functional, cell-based, CHO-K1
Parameter IC50: see the listing below.
API: value field is a number in µM; no unit string.

Known results for compounds:
CCOc1nc(-c2ccccc2)ncc1C(=O)N1CCC(c2nc3ccccc3[nH]2)CC1
0.91
O=S(=O)(c1ccc(-c2ccccc2)cc1)N1CCC(c2nc3ccccc3[nH]2)CC1
0.84

Consider Cn1c(C2CCN(C(=O)c3ccc(-c4ccccc4)cc3)CC2)nc2ccccc21 . Its measured IC50 is 10

Consider c1ccc(-c2ccc(CN3CCC(c4nc5ccccc5[nH]4)CC3)cc2)cc1 . Its measured IC50 is 7.3

Consider O=C(c1cnc(-c2ccccc2)nc1)N1CCC(c2nc3ccccc3[nH]2)CC1 . Its measured IC50 is 0.71

Consider O=C(c1ccc(-c2ccc(OC(F)(F)F)cc2)cc1)N1CCC(c2nc3ccccc3[nH]2)CC1 . Its measured IC50 is 16

###

test: Oral bioavailability in Sprague-Dawley rat; format: ADME, organism-based; conditions: in vivo
Parameter bioavailability: see the listing below.
API: value field is a number in %; no unit string.

O=C(c1ccc(-c2ccc(F)cc2)cc1)N1CCC(Cc2ncc[nH]2)CC1
118
O=C(c1ccc(-c2ccccc2)cc1)N1CCC(c2nc3ccccc3[nH]2)CC1
130
O=C(c1ccc(-c2ccc(F)cc2)cc1)N1CCC(c2ncc[nH]2)CC1
100

Here's the next entry for you.
Consider O=S(=O)(c1ccc(-c2ccc(F)cc2)cc1)N1CCC(c2ncc[nH]2)CC1 . Its measured bioavailability is 54
